Biological target: T1, tumor necrosis factor-α (TNF-α), recombinant (UniProt P01375 77-233)
T1 construct: TNF-α, bought recombinant protein; The bought product is probably the soluble mature human form (surmise); Amine-coupled to a CM5 chip for SPR; source: bought: GOLDBIO.COM, USA (catalog #1130-01)
T1 sequence (P01375 77-233): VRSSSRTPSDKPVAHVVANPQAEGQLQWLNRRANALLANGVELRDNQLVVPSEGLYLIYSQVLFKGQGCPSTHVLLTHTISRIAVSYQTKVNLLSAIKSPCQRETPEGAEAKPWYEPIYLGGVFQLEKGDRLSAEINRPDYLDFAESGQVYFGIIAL
Assay: SPR; Biacore T200; cytokine (about 5000 RU TNF-α, about 2000 RU IL-6) amine-coupled to a CM5 chip; peptide flowed over, single cycle kinetics, KCF18 at 2, 10, 25, 50 and 100 μM, 10 μl/min, 25 °C; steady-state binding isotherm fitted with a monovalent binding model
Details: both partners purified
Parameter Measured: Kd (µM)
Entry rule: numbers only, all in µM.

Ask: Need Kd, item KCRKEMFKQKLPYSTVYF (designed 18-residue composite peptide: KCRKEM from TNFR1, FKQKLP from IL-1R, YSTVYF from the IL-6 receptor; also called designed peptide KCF18; source: synthetic peptide (GeneMark, GMbiolab Co., Ltd., Taiwan; solid phase)) [composite peptide KCF18]
Reply: 60.9

Origin of measurements: paper PMC6381106
